target: Histone acetyltransferase KAT6A [507-778] (Human)
Sequence (Q92794 whole entry): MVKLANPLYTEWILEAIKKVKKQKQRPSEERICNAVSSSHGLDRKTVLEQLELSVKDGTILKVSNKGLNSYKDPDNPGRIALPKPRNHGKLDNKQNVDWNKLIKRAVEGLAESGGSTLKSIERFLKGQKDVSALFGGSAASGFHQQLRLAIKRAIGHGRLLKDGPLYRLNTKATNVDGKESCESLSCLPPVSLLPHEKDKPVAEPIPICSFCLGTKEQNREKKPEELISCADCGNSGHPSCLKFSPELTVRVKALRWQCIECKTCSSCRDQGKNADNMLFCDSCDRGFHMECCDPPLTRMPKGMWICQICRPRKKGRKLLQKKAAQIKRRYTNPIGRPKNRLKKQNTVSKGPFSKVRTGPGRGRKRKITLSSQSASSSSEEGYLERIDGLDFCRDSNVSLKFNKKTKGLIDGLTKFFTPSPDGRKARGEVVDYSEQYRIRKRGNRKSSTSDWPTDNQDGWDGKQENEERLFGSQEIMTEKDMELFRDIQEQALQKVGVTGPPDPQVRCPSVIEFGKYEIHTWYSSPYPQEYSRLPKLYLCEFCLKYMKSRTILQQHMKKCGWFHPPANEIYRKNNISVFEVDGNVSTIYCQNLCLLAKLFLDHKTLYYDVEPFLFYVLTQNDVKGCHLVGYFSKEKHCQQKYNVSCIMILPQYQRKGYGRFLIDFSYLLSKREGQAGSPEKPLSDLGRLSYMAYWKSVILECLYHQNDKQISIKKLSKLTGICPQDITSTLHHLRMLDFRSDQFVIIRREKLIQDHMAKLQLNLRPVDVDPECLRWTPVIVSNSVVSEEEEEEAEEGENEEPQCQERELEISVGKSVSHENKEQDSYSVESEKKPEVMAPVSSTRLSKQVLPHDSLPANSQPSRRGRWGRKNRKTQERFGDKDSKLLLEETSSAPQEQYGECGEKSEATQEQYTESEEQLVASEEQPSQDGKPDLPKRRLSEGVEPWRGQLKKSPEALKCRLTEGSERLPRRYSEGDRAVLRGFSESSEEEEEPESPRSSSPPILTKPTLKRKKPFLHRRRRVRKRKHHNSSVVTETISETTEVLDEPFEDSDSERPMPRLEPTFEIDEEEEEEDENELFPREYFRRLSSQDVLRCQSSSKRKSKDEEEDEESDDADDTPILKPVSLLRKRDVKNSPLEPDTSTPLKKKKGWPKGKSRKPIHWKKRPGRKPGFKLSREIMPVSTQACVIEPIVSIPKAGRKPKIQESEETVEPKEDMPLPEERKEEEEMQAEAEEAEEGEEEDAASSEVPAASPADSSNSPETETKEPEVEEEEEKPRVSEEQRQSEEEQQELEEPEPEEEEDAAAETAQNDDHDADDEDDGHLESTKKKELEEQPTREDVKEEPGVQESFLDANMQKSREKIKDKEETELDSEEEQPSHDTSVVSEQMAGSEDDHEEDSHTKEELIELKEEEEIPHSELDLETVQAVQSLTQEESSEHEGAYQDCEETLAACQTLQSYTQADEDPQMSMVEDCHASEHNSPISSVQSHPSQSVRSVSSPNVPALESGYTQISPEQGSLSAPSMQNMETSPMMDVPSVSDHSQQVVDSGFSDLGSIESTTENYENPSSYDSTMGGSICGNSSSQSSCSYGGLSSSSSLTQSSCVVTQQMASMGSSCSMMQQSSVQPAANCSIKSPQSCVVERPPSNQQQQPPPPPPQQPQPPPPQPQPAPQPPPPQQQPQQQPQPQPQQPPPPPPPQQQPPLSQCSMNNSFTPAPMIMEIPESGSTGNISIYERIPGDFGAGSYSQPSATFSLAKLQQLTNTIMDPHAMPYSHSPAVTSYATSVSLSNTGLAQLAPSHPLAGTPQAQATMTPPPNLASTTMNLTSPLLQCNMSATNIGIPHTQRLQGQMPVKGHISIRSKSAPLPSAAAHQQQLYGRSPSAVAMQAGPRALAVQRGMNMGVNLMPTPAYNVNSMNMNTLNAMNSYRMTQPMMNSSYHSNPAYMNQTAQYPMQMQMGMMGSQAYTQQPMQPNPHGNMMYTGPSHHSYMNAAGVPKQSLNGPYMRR
pIC50: −log10 of the molar value.
# pIC50 values compiled below

{"MOLECULE": "CN(C(=O)Oc1ccccc1S(=O)(=O)NC(=O)c1cc2c(F)cc(N3CCC3)cc2o1)c1ccccc1", "pIC50": 6.71}
{"MOLECULE": "COc1ccc(C2=CCN(C(=O)OC(C)(C)C)CC2)cc1S(=O)(=O)NC(=O)c1cc2c(F)cc(N3CCC3)cc2o1", "pIC50": 8.22}
{"MOLECULE": "C[C@H](Oc1ccccc1S(=O)(=O)NC(=O)c1cc2c(F)cc(N3CCC3)cc2o1)C(F)(F)F", "pIC50": 7.33}
{"MOLECULE": "COc1ccc(Br)cc1S(=O)(=O)NC(=O)c1cc2c(F)cc(N3CCC3)cc2o1", "pIC50": 7.57}
{"MOLECULE": "Cc1ccc(S(=O)(=O)NC(=O)c2cc3c(F)cc(N4CCC4)cc3o2)c2ccncc12", "pIC50": 6.51}
{"MOLECULE": "COc1cccc(N2CCOCC2)c1S(=O)(=O)NC(=O)c1cc2c(F)cc(N3CCC3)cc2o1", "pIC50": 7.59}
{"MOLECULE": "O=C(NS(=O)(=O)c1cc(Br)ccc1OC(F)(F)F)c1cc2c(F)cc(N3CCC3)cc2o1", "pIC50": 7.72}
